Values from patent US20240132578A1

experimental_system: HIV-1 Env of isolate APV_17 (subtype B) (HIV-1)
method_description: cell-based or functional assay
measured_metric: IC50 (µg/mL), pseudovirus neutralization

1. PGT-135 (antibody, V domains shown) VH: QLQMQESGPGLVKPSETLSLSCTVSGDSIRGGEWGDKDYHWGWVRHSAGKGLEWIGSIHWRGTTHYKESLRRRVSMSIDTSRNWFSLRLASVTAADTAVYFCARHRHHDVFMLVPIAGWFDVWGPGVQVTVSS VL: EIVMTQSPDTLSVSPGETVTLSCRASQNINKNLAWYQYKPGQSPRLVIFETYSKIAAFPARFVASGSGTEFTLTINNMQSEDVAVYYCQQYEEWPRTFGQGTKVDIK = > 50 µg/mL
2. PGT-128 (antibody, V domains shown) VH: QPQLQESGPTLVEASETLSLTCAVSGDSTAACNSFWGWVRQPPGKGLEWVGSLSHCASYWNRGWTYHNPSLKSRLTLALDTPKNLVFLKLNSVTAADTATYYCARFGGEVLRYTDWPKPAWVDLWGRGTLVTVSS VL: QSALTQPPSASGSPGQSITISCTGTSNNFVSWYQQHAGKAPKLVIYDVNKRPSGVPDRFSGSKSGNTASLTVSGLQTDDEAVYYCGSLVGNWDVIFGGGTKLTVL = 0.016 µg/mL
3. PGT-131 (antibody, V domains shown) VH: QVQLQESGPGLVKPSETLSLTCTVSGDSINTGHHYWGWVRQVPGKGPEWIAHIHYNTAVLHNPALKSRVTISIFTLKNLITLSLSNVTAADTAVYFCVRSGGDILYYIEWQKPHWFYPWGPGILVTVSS VL: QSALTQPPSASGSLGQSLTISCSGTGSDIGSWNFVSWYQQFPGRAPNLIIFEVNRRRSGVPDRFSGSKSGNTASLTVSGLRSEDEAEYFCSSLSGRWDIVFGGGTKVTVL = > 50 µg/mL
